# credit: patent US12077503B2

Kindly supply the reported pest or weed control at 125 g/ha values for the records listed here.
- System: ryegrass, Italian (Italian ryegrass, Lolium multiflorum)
- protocol_notes: Test A postemergence
- Assay type: in vivo
- condition_description: Lolium multiflorum, post-emergence, 240 h, 125 g ai/ha, postemergence, visual injury vs untreated controls after approx. 10 d; 0 = no effect, 100 = complete control; read-out: Ryegrass, Italian plant response rating (0 to 100 scale)

Fill in the recorded pest or weed control at 125 g/ha for this molecule, with ryegrass, Italian (Italian ryegrass, Lolium multiflorum) as test system: `CSc1ccccc1NC(=O)[C@H]1C(=O)N(C)C[C@@H]1c1ccc(C(F)(F)F)nc1`
0%

Record lookup: for ryegrass, Italian (Italian ryegrass, Lolium multiflorum), what pest or weed control at 125 g/ha belongs to `N#Cc1ccc([C@H]2CNC(=O)[C@@H]2C(=O)Nc2ccccc2F)cc1F` ?
0%

Record lookup: for ryegrass, Italian (Italian ryegrass, Lolium multiflorum), what pest or weed control at 125 g/ha belongs to `CN1C[C@H](c2ccc(Cl)cc2)[C@@H](C(=O)Nc2ccc(F)c(F)c2F)C1=O` ?
60%

Provide the documented pest or weed control at 125 g/ha with ryegrass, Italian (Italian ryegrass, Lolium multiflorum) as the system for `COc1ccc([C@H]2CN(C)C(=O)[C@@H]2C(=O)Nc2ccccc2F)c(OC)c1`
0%
